This collection of values is drawn from BindingDB's records for doi:10.1021/acs.jmedchem.9b00963.

assay: Inhibition of BCRP (unknown origin) transfected in HEK293/R2 cells assessed as reversal of topotecan resistance after 5 days by MTS/PMS assay
measuredParameter: EC50 (nM)

>>> result("O=c1cc(-c2ccccc2)oc2cc(OCCOCc3cn(CCOCCOc4ccc(-c5cc(=O)c6cc(F)ccc6o5)cc4)nn3)ccc12")
285
>>> result("O=c1cc(-c2ccc(OCCOCCOCCn3cc(CCCOc4ccc5c(=O)cc(-c6ccccc6)oc5c4)nn3)cc2)oc2ccccc12")
52

a: O=c1cc(-c2ccc(OCCOCCOCCn3cc(COCCOc4ccc5c(=O)cc(-c6ccccc6)oc5c4)nn3)cc2)oc2ccccc12
b: Cc1ccc2oc(-c3ccc(OCCOCCOCCOCCOCCOc4ccc(-c5cc(=O)c6cc(C)ccc6o5)cc4)cc3)cc(=O)c2c1
c: O=c1cc(-c2ccccc2)oc2cc(OCCOCCn3cc(CN(Cc4ccccc4)Cc4cn(CCOCCOc5ccc6c(=O)cc(-c7ccccc7)oc6c5)nn4)nn3)ccc12
d: COC(=O)c1cccc(COc2c(-c3ccc(OCCOCCOCCn4cc(-c5ccc(-c6cn(CCOCCOCCOc7ccc(-c8oc9ccccc9c(=O)c8OCc8cccc(C(=O)OC)c8)cc7)nn6)cc5)nn4)cc3)oc3ccccc3c2=O)c1
Please give the order of these compounds when sorted by EC50, largest value leading. Would you mind listing the labels in the order asked for?
a, c, b, d
(a: 303 nM, c: 153 nM, b: 65 nM, d: 2.4 nM)

----------
test: Inhibition of BCRP in human MCF7/MX100 cells assessed as reversal of topotecan resistance after 5 days by MTS/PMS assay
measuredParameter: EC50 (nM)

>>> result("Cc1ccc2oc(-c3ccc(OCCCCc4cn(CCOCCOCCOc5ccc(-c6cc(=O)c7cc(F)ccc7o6)cc5)nn4)cc3)cc(=O)c2c1")
320

a: COC(=O)c1cccc(COc2c(-c3ccc(OCCOCCOCCn4cc(CN(Cc5cn(CCOCCOCCOc6ccc(-c7oc8ccccc8c(=O)c7OCc7cccc(C(=O)OC)c7)cc6)nn5)c5ccccc5)nn4)cc3)oc3ccccc3c2=O)c1
b: COC(=O)c1cccc(COc2c(-c3ccc(OCCOCCn4cc(CCCc5cn(CCOCCOc6ccc(-c7oc8ccccc8c(=O)c7OCc7cccc(C(=O)OC)c7)cc6)nn5)nn4)cc3)oc3ccccc3c2=O)c1
API: POST /compare with a and b ; response names the item with higher EC50. Answer = label.
a

I: O=c1cc(-c2ccc(OCCCc3cn(CCOCCOCCOc4ccc(-c5cc(=O)c6cc(F)ccc6o5)cc4)nn3)cc2)oc2cc(F)ccc12
II: Cc1ccc2oc(-c3ccc(OCCOCCOCCn4cc(CN(Cc5ccccc5)Cc5cn(CCOCCOCCOc6ccc(-c7cc(=O)c8cc(C)ccc8o7)cc6)nn5)nn4)cc3)cc(=O)c2c1
Which of the two items, I and II , has the greater recorded EC50? Field: selected label. Fill in the label of the entry you choose.
II
(II: 46 nM, I: 4 nM)

P: COC(=O)c1cccc(COc2c(-c3ccc(OCCOCCOCCn4cc(CN(Cc5ccccc5)Cc5cn(CCOCCOCCOc6ccc(-c7oc8ccccc8c(=O)c7OCc7cccc(C(=O)OC)c7)cc6)nn5)nn4)cc3)oc3ccccc3c2=O)c1
Q: O=c1cc(-c2ccccc2)oc2cc(OCCN(Cc3ccccc3)Cc3cn(CCOCCOCCOc4ccc(-c5cc(=O)c6cc(F)ccc6o5)cc4)nn3)ccc12
R: O=c1cc(-c2ccccc2)oc2cc(OCCOCc3cn(CCOCCOc4ccc(-c5cc(=O)c6cc(F)ccc6o5)cc4)nn3)ccc12
Your job: order these 3 records by EC50, ascending. Form entry: ranked labels (order as requested).
P, Q, R
(P: 4.3 nM, Q: 20 nM, R: 195 nM)

A: COC(=O)c1cccc(COc2c(-c3ccc(OCCOCCn4cc(CN(Cc5ccncc5)Cc5cn(CCOCCOc6ccc(-c7oc8ccccc8c(=O)c7OCc7cccc(C(=O)OC)c7)cc6)nn5)nn4)cc3)oc3ccccc3c2=O)c1
B: O=c1cc(-c2ccccc2)oc2cc(OCCCCc3cn(CCOCCOc4ccc5c(=O)cc(-c6ccccc6)oc5c4)nn3)ccc12
Which item exceeds the other in EC50, A or B ? Mark your selection by writing its label.
B
(B: 39 nM, A: 25 nM)

a: O=c1cc(-c2ccc(OCCOCCn3cc(CCCOc4ccc5c(=O)cc(-c6ccccc6)oc5c4)nn3)cc2)oc2ccccc12
b: Cc1ccc2oc(-c3ccc(OCCOCCOCCn4cc(CCCOc5ccc(-c6cc(=O)c7ccc(F)cc7o6)cc5)nn4)cc3)cc(=O)c2c1
c: O=c1cc(-c2ccc(OCCCc3cn(CCOCCOCCOc4ccc(-c5oc6ccccc6c(=O)c5OCc5ccccc5)cc4)nn3)cc2)oc2cc(F)ccc12
d: Cc1ccc2oc(-c3ccc(OCCCCc4cn(CCOCCOCCOc5ccc(-c6cc(=O)c7ccccc7o6)cc5)nn4)cc3)cc(=O)c2c1
Sort the compounds on EC50; start with the lowest figure. # output: labels, in the requested order
b, a, c, d

1: O=c1cc(-c2ccc(OCCOCCOCCn3cc(CCCOc4ccc5c(=O)cc(-c6ccccc6)oc5c4)nn3)cc2)oc2ccccc12
2: COC(=O)c1cccc(COc2c(-c3ccc(OCCOCCOCCn4cc(-c5ccc(-c6cn(CCOCCOCCOc7ccc(-c8oc9ccccc9c(=O)c8OCc8cccc(C(=O)OC)c8)cc7)nn6)cc5)nn4)cc3)oc3ccccc3c2=O)c1
I'm curious whether 1 or 2 has the smaller EC50 number. Which is it? Reply briefly: the label of your chosen item.
2

1: O=c1cc(-c2ccc(OCCOCCOCCn3cc(CCCOc4ccc(-c5cc(=O)c6ccc(F)cc6o5)cc4)nn3)cc2)oc2ccccc12
2: Cc1ccc2oc(-c3ccc(OCCOCCOCCn4cc(COCCOc5ccc6c(=O)cc(-c7ccccc7)oc6c5)nn4)cc3)cc(=O)c2c1
3: O=c1cc(-c2ccccc2)oc2cc(OCCn3cc(CN(Cc4ccccc4)Cc4cn(CCOc5ccc6c(=O)cc(-c7ccccc7)oc6c5)nn4)nn3)ccc12
4: COC(=O)c1cccc(COc2c(-c3ccc(OCCOCCn4cc(CN5CCN(Cc6cn(CCOCCOc7ccc(-c8oc9ccccc9c(=O)c8OCc8cccc(C(=O)OC)c8)cc7)nn6)CC5)nn4)cc3)oc3ccccc3c2=O)c1
List from greatest to least EC50. Answer by listing the labels in the requested order.
3, 2, 4, 1

----------
experiment: Inhibition of BCRP (unknown origin) transfected in HEK293/R2 cells assessed as reversal of topotecan resistance after 5 days by MTS/PMS assay
pEC50: −log10 of the molar value.
measuredParameter: pEC50

Example cases with answers are listed next.
>>> result("O=c1cc(-c2ccccc2)oc2cc(OCCN(Cc3ccccc3)Cc3cn(CCOCCOc4ccc(-c5cc(=O)c6cc(F)ccc6o5)cc4)nn3)ccc12")
7.32
>>> result("O=c1cc(-c2ccc(OCCOCCn3cc(CCCCOc4ccc5c(=O)cc(-c6ccccc6)oc5c4)nn3)cc2)oc2ccccc12")
7.28

P: Cc1ccc2oc(-c3ccc(OCCOCCOCCn4cc(CCCOc5ccc6c(=O)cc(-c7ccccc7)oc6c5)nn4)cc3)cc(=O)c2c1
Q: O=c1cc(-c2ccc(OCCOCCn3cc(CN(CCOc4ccc5c(=O)cc(-c6ccccc6)oc5c4)Cc4ccccc4)nn3)cc2)oc2ccccc12
R: O=c1cc(-c2ccc(OCCOCCn3cc(COCCOc4ccc5c(=O)cc(-c6ccccc6)oc5c4)nn3)cc2)oc2ccccc12
S: COC(=O)c1cccc(COc2c(-c3ccc(OCCOCCOCCn4cc(-c5cccc(-c6cn(CCOCCOCCOc7ccc(-c8oc9ccccc9c(=O)c8OCc8cccc(C(=O)OC)c8)cc7)nn6)c5)nn4)cc3)oc3ccccc3c2=O)c1
Hey, quick one: sort these by pEC50, largest value first please. Form entry: ranked labels (order as requested).
S, P, Q, R

----------
assay: Inhibition of P-gp (unknown origin) expressed in human LCC6MDR cells assessed as reversal of paclitaxel resistance after 5 days by MTS/PMS assay
pEC50: −log10 of the molar value.
measuredParameter: pEC50

>>> result("Cc1ccc2oc(-c3ccc(OCCCCc4cn(CCOCCOCCOc5ccc(-c6cc(=O)c7cc(C)ccc7o6)cc5)nn4)cc3)cc(=O)c2c1")
6.28
>>> result("COC(=O)c1cccc(COc2c(-c3ccc(OCCOCCn4cc(CCCCOc5ccc6c(=O)cc(-c7ccccc7)oc6c5)nn4)cc3)oc3ccccc3c2=O)c1")
6.49
>>> result("O=c1cc(-c2ccc(OCCOCCn3cc(CN(CCOc4ccc5c(=O)cc(-c6ccccc6)oc5c4)Cc4ccccc4)nn3)cc2)oc2ccccc12")
6.20
>>> result("O=c1cc(-c2ccc(OCCCc3cn(CCOCCOc4ccc(-c5cc(=O)c6ccccc6o5)cc4)nn3)cc2)oc2ccccc12")
6.70

A: Cc1ccc2oc(-c3ccc(OCCOCCOCCn4cc(CCCCOc5ccc6c(=O)cc(-c7ccccc7)oc6c5)nn4)cc3)cc(=O)c2c1
B: O=c1cc(-c2ccccc2)oc2cc(OCCCc3cn(CCOCCOCCOc4ccc5c(=O)cc(-c6ccccc6)oc5c4)nn3)ccc12
Between the entries labelled A and B , which has a larger pEC50 value on record? Choose, then provide that item's label.
A
